Procedure Text: Plasma toxicokinetics after single i.v. bolus
Type: in vivo, Sprague-Dawley rats
Cond: Sprague-Dawley, rat, plasma, intravenous, 1 mg/kg, Concentration of anatabine in rat plasma, Anatabine 1.0 mg/kg, rat plasma, 1 hr, rats of group 6
Measure Name: concentration at 1 h (ng/mL)
Numbers only; they are read as ng/mL.

concentration at 1 h measured on C1=CCC(c2cccnc2)NC1 (racemic) [Anatabine, 1,2,3,6-tetrahydro-[2,3′]bipyridinyl] = 218

###

Procedure Text: Plasma pharmacokinetics after oral multi-dose anatabine polacrilex
Format: in vivo, Sprague-Dawley rats
Cond: male, Sprague-Dawley, rat, plasma, oral, 0.2 mg/kg BW, Avg. Conc. of anatabine in plasma, dose group 0.2, male, 600 min
Measure Name: concentration at 600 min (ng/mL)
Numbers only; they are read as ng/mL.

concentration at 600 min measured on C1=CCC(c2cccnc2)NC1 (racemic) [Anatabine, 1,2,3,6-tetrahydro-[2,3′]bipyridinyl] = 29

###

Procedure Text: Plasma pharmacokinetics after oral multi-dose anatabine polacrilex
Type: in vivo, Sprague-Dawley rats
Cond: both sexes, Sprague-Dawley, rat, plasma, oral, 2 mg/kg BW, Avg. Conc. of anatabine in plasma, Male and Female, dose group 2, combined male and female, 300 min
Measure Name: concentration at 300 min (ng/mL)
Numbers only; they are read as ng/mL.

concentration at 300 min measured on C1=CCC(c2cccnc2)NC1 (racemic) [Anatabine, 1,2,3,6-tetrahydro-[2,3′]bipyridinyl] = 222

###

Procedure Text: Plasma pharmacokinetics after oral multi-dose anatabine polacrilex
Assay type: in vivo, Sprague-Dawley rats
Cond: male, Sprague-Dawley, rat, plasma, oral, 0.2 mg/kg BW, Avg. Conc. of anatabine in plasma, dose group 0.2, male, 540 min
Measure Name: concentration at 540 min
Kindly format the answer as number then unit.

concentration at 540 min measured on C1=CCC(c2cccnc2)NC1 (racemic) [Anatabine, 1,2,3,6-tetrahydro-[2,3′]bipyridinyl] = 38 ng/mL

###

Procedure Text: Plasma pharmacokinetics after oral multi-dose anatabine polacrilex
Assay type: in vivo, Sprague-Dawley rats
Cond: both sexes, Sprague-Dawley, rat, plasma, oral, 0.2 mg/kg, Avg. Conc. of anatabine in plasma, Male and Female, dose group 0.2, combined male and female, 30 min
Measure Name: concentration at 30 min (ng/mL)
Numbers only; they are read as ng/mL.

concentration at 30 min measured on C1=CCC(c2cccnc2)NC1 (racemic) [Anatabine, 1,2,3,6-tetrahydro-[2,3′]bipyridinyl] = 36

###

Procedure Text: Plasma toxicokinetics after single i.v. bolus
Assay type: in vivo, Sprague-Dawley rats
Cond: both sexes, Sprague-Dawley, rat, plasma, intravenous, 1 mg/kg, Anatabine 1.0 mg/kg; male and female; 0.5 hr (2nd 0.5 hr line), n=6; read-out: Avg. Conc. rat plasma, combined male and female
Measure Name: concentration at 0.5 h

concentration at 0.5 h measured on C1=CCC(c2cccnc2)NC1 (racemic) [Anatabine, 1,2,3,6-tetrahydro-[2,3′]bipyridinyl] = 384 ng/mL

###

Procedure Text: Plasma toxicokinetics after single i.v. bolus
Format: in vivo, Sprague-Dawley rats
Cond: female, Sprague-Dawley, rat, plasma, intravenous, 0.75 mg/kg, Anatabine 0.75 mg/kg; female; 0.5 hr (1st 0.5 hr line); read-out: Avg. Conc. rat plasma
Measure Name: concentration at 0.5 h (ng/mL)
Numbers only; they are read as ng/mL.

concentration at 0.5 h measured on C1=CCC(c2cccnc2)NC1 (racemic) [Anatabine, 1,2,3,6-tetrahydro-[2,3′]bipyridinyl] = 190

###

Procedure Text: Plasma toxicokinetics after single i.v. bolus
Assay type: in vivo, Sprague-Dawley rats
Cond: Sprague-Dawley, rat, plasma, intravenous, 0.75 mg/kg, Concentration of anatabine in rat plasma, Anatabine 0.75 mg/kg, rat plasma, 2 hr, rats of group 3
Measure Name: concentration at 2 h (ng/mL)
Numbers only; they are read as ng/mL.

concentration at 2 h measured on C1=CCC(c2cccnc2)NC1 (racemic) [Anatabine, 1,2,3,6-tetrahydro-[2,3′]bipyridinyl] = 73

###

Procedure Text: Plasma pharmacokinetics after oral multi-dose anatabine polacrilex
Assay type: in vivo, Sprague-Dawley rats
Cond: Sprague-Dawley, rat, plasma, po; 6.0 mg/kg, male rats, mean
Measure Name: AUC(0-inf) (ng·h/mL)
Numbers only; they are read as ng·h/mL.

AUC(0-inf) measured on C1=CCC(c2cccnc2)NC1 (racemic) [Anatabine, 1,2,3,6-tetrahydro-[2,3′]bipyridinyl] = 3260

###

Procedure Text: Plasma toxicokinetics after single i.v. bolus
Format: in vivo, Sprague-Dawley rats
Cond: female, Sprague-Dawley, rat, plasma, intravenous, 1 mg/kg, Anatabine 1.0 mg/kg; female; 6 hr (2nd 6 hr line); read-out: Avg. Conc. rat plasma
Measure Name: concentration at 6 h (ng/mL)
Numbers only; they are read as ng/mL.

concentration at 6 h measured on C1=CCC(c2cccnc2)NC1 (racemic) [Anatabine, 1,2,3,6-tetrahydro-[2,3′]bipyridinyl] = 23

###

Procedure Text: Concentration in brain extracts after single i.v. bolus
Type: in vivo, Sprague-Dawley rats
Cond: female, Sprague-Dawley, rat, brain, intravenous, 0.75 mg/kg, anatabine 0.75 mg/kg i.v., 0.5 hr, Female; read-out: Mean concentration in rat brain extracts
Measure Name: concentration at 0.5 h (ng/g)
Numbers only; they are read as ng/g.

concentration at 0.5 h measured on C1=CCC(c2cccnc2)NC1 (racemic) [Anatabine, 1,2,3,6-tetrahydro-[2,3′]bipyridinyl] = 315

###

Procedure Text: Plasma pharmacokinetics after oral multi-dose anatabine polacrilex
Format: in vivo, Sprague-Dawley rats
Cond: both sexes, Sprague-Dawley, rat, plasma, po; 6.0 mg/kg BW total p.o., males and females combined
Measure Name: AUC(0-inf) (ng·h/mL)
Numbers only; they are read as ng·h/mL.

AUC(0-inf) measured on C1=CCC(c2cccnc2)NC1 (racemic) [Anatabine, 1,2,3,6-tetrahydro-[2,3′]bipyridinyl] = 3500

###

Procedure Text: Plasma toxicokinetics after single i.v. bolus
Format: in vivo, Sprague-Dawley rats
Cond: male, Sprague-Dawley, rat, plasma, intravenous, 0.1 mg/kg, Anatabine 0.1 mg/kg; male; 1 hr; read-out: Avg. Conc. rat plasma
Measure Name: concentration at 1 h (ng/mL)
Numbers only; they are read as ng/mL.

concentration at 1 h measured on C1=CCC(c2cccnc2)NC1 (racemic) [Anatabine, 1,2,3,6-tetrahydro-[2,3′]bipyridinyl] = 12.3

###

Procedure Text: Plasma toxicokinetics after single i.v. bolus
Assay type: in vivo, Sprague-Dawley rats
Cond: Sprague-Dawley, rat, plasma, intravenous, 1 mg/kg, Concentration of anatabine in rat plasma, Anatabine 1.0 mg/kg, rat plasma, 8 hr, rats of group 5
Measure Name: concentration at 8 h (ng/mL)
Numbers only; they are read as ng/mL.

concentration at 8 h measured on C1=CCC(c2cccnc2)NC1 (racemic) [Anatabine, 1,2,3,6-tetrahydro-[2,3′]bipyridinyl] = 8

###

Procedure Text: Plasma pharmacokinetics after oral multi-dose anatabine polacrilex
Type: in vivo, Sprague-Dawley rats
Cond: female, Sprague-Dawley, rat, plasma, po, both treatment groups combined, female rats, mean; read-out: t1/2,0→4 (converted)
Measure Name: half-life (h)
Numbers only; they are read as h.

half-life measured on C1=CCC(c2cccnc2)NC1 (racemic) [Anatabine, 1,2,3,6-tetrahydro-[2,3′]bipyridinyl] = 1.94

###

Procedure Text: Plasma toxicokinetics after single i.v. bolus
Format: in vivo, Sprague-Dawley rats
Cond: both sexes, Sprague-Dawley, rat, plasma, intravenous, 0.1 mg/kg, Anatabine 0.1 mg/kg; male and female; 1 hr; read-out: Avg. Conc. rat plasma, combined male and female
Measure Name: concentration at 1 h
Kindly format the answer as number then unit.

concentration at 1 h measured on C1=CCC(c2cccnc2)NC1 (racemic) [Anatabine, 1,2,3,6-tetrahydro-[2,3′]bipyridinyl] = 8 ng/mL

###

Procedure Text: Concentration in brain extracts after single i.v. bolus
Type: in vivo, Sprague-Dawley rats
Cond: male, Sprague-Dawley, rat, brain, intravenous, 0.1 mg/kg, Anatabine 0.1 mg/kg; male; 24 hr; read-out: Avg. Conc. rat brain
Measure Name: concentration at 24 h
Kindly format the answer as number then unit.

concentration at 24 h measured on C1=CCC(c2cccnc2)NC1 (racemic) [Anatabine, 1,2,3,6-tetrahydro-[2,3′]bipyridinyl] = 3 ng/g

###

Procedure Text: Concentration in brain extracts after single i.v. bolus
Assay type: in vivo, Sprague-Dawley rats
Cond: female, Sprague-Dawley, rat, brain, intravenous, 1 mg/kg, Anatabine 1.0 mg/kg; female; 0.5 hr; read-out: Avg. Conc. rat brain
Measure Name: concentration at 0.5 h (ng/g)
Numbers only; they are read as ng/g.

concentration at 0.5 h measured on C1=CCC(c2cccnc2)NC1 (racemic) [Anatabine, 1,2,3,6-tetrahydro-[2,3′]bipyridinyl] = 346

###

Procedure Text: Plasma toxicokinetics after single i.v. bolus
Assay type: in vivo, Sprague-Dawley rats
Cond: Sprague-Dawley, rat, plasma, intravenous, 0.75 mg/kg, Concentration of anatabine in rat plasma, Anatabine 0.75 mg/kg, rat plasma, 4 hr, rats of group 3
Protocol: Six rats (3 males and 3 females) were dosed per dose group. […] Plasma and brain homogenates were stored at −80° C. until analysis. […] Four aliquots of each dose level formulation were collected and stored at −80° C. […] The physical signs of each animal were monitored following administration of the test compound. […] Sample preparation. […] The amount of the test agent in the supernatant was determined by liquid chromatography tandem mass spectrometry (LC/MS/MS). […]
Measure Name: concentration at 4 h
Kindly format the answer as number then unit.

concentration at 4 h measured on C1=CCC(c2cccnc2)NC1 (racemic) [Anatabine, 1,2,3,6-tetrahydro-[2,3′]bipyridinyl] = 29 ng/mL

These data points were gathered from patent US20120196899A1.
